- method.summary: chemical genetic growth profiling, strain panel (AID 1159580);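 also: tested at 20 µM; growth read once vehicle control cultures reached saturation at 30 °C; lower values mean less growth of the strain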
- run.parameters: S. cerevisiae deletion strains, growth OD, locus YKR001C, strain vps1, active compounds read low
Out of some 5,500 compounds screened, about 2,000 (36%) were called active. Another 18% or so got no clear call; they are omitted. The list shows a part of the results.
Param label: returns YES when normalized growth < 1, returns NO otherwise, including exact equality.

# compound, answer.label
measured = [
    ("COc1ccc(-c2coc3c(OC)c(OC)cc(O)c3c2=O)cc1", "YES"),
    ("C[CH2][Hg][S]c1ccccc1C(=O)O", "YES"),
    ("CC(C)=CCc1c(O)cc(C)oc1=O", "NO"),
    ("CC(C)=CCc1c(O)cc2oc(C)cc(=O)c2c1O", "YES"),
    ("CC(C)N(C(=O)CCl)c1ccccc1", "NO"),
    ("CN1C2CC3C[C@H]1C(O3)C2O (stereo partly drawn)", "NO"),
]
